The following compounds are listed with their measured selectivity ratio values.
assayInfo: Selectivity index, ratio of ED50 for human HaCaT cells to MIC for Pseudomonas aeruginosa PAO1 ATCC 15692
Format: toxicity
protocolConditions: read-out: Selectivity Index
Square brackets hold non-standard residues; d marks the D form. Peptide text beside a SMILES is read from it. Nspe = C[C@H](NCC(=O)O)c1ccccc1; NhArg = N=C(N)NCCCCNCC(=O)O; Nlys = NCCCCNCC(=O)O
API doc: respond with a numeric literal and nothing else, no unit.

# compound, measurement
measured = [
    ("NCCCCNCC(=O)N(CC(=O)N(CC(=O)N(CCCCN)CC(=O)N(CC(=O)N(CC(=O)N(CCCCN)CC(=O)N(CC(=O)N(CC(N)=O)Cc1cccc(F)c1)Cc1cccc(F)c1)Cc1cccc(F)c1)Cc1cccc(F)c1)Cc1cccc(F)c1)Cc1cccc(F)c1", 3),
    ("CC(c1ccccc1)N(CC(=O)N(CCN)CC(=O)N(CC(=O)N(CC(=O)N(CCN)CC(=O)N(CC(=O)N(CC(N)=O)[C@@H](C)c1ccccc1)[C@@H](C)c1ccccc1)C(C)c1ccccc1)[C@@H](C)c1ccccc1)C(=O)CN(C(=O)CNCCN)C(C)c1ccccc1 (single isomer, unassigned)", 1),
]

Field: next compound
Record request: selectivity ratio value, item C[C@@H](c1ccccc1)N(CC(N)=O)C(=O)CN(C(=O)CN(CCCCN)C(=O)CN(C(=O)CN(C(=O)CN(CCCCN)C(=O)CN(C(=O)CN(C(=O)CN(CCCCNC(=N)N)C(=O)CN(C(=O)CN(C(=O)CNCCCCN)[C@@H](C)c1ccccc1)[C@@H](C)c1ccccc1)[C@@H](C)c1ccccc1)[C@@H](C)c1ccccc1)[C@@H](C)c1ccccc1)[C@@H](C)c1ccccc1)[C@@H](C)c1ccccc1 (H-[Nlys][Nspe][Nspe][NhArg][Nspe][Nspe][Nlys][Nspe][Nspe][Nlys][Nspe][Nspe]-NH2)
2
